Target under test: T1, mouse programmed cell death protein 1 Fc fusion protein (mPD-1-Fc), mPD-1 C60S (aa 25-167) (Mus musculus, UniProt Q02242, stabilised)
T1 construct: not cleaved; source: Expi293F, purified (Protein A, SEC; dimeric fraction); not shown: Fc (human), C-terminal, kept
Test summary: SPR; Carterra LSA; Fab from the ammonium sulfate precipitate of the culture supernatant immobilised on a NiHC200M chip; hPD-1 (1-1024 nM) or mPD-1-Fc (4-1024 nM) as analyte, fourfold dilution series, no regeneration; HBS-EP pH 7.4, 25 °C; medians over the spots of a construct, KD = koff/kon
Cond: one partner purified
Quantity name: koff (s⁻¹)
Give a bare numeral; the unit s⁻¹ is implied.

// toripalimab Fab L.V99Y (Fab, V domains shown, as the heavy chain of Sm3; light chain of Sm3 with this change; numbers count from the chain's first residue; source: Brevibacillus, culture supernatant (ammonium sulfate precipitate); not shown: 6xHis, C-terminal, kept; 6xHN, C-terminal, kept) VH: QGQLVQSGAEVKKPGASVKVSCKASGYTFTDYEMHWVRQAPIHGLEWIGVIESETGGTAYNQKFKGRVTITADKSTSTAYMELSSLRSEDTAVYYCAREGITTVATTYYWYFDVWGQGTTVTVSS VL: DVVMTQSPLSLPVTLGQPASISCRSSQSIVHSNGNTYLEWYLQKPGQSPQLLIYKVSNRFSGVPDRFSGSGSGTDFTLKISRVEAEDVGVYYCFQGSHYPLTFGQGTKLEIK : koff value = 0.0369

The reported value for toripalimab Fab H.K63A (Fab, V domains shown, heavy chain of Sm3 with this change; numbers count from the chain's first residue; as the light chain of Sm3; source: Brevibacillus, culture supernatant (ammonium sulfate precipitate); not shown: 6xHis, C-terminal, kept; 6xHN, C-terminal, kept) VH: QGQLVQSGAEVKKPGASVKVSCKASGYTFTDYEMHWVRQAPIHGLEWIGVIESETGGTAYNQAFKGRVTITADKSTSTAYMELSSLRSEDTAVYYCAREGITTVATTYYWYFDVWGQGTTVTVSS VL: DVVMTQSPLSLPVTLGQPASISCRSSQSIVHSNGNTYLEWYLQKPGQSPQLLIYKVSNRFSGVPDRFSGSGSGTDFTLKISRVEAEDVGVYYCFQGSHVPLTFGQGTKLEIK in terms of koff is 0.00524
